# system.under.test: human RXFP1 (Homo sapiens, UniProt Q9HBX9)
# Construct: expressed in transfected cells
# Sequence (Q9HBX9 whole entry): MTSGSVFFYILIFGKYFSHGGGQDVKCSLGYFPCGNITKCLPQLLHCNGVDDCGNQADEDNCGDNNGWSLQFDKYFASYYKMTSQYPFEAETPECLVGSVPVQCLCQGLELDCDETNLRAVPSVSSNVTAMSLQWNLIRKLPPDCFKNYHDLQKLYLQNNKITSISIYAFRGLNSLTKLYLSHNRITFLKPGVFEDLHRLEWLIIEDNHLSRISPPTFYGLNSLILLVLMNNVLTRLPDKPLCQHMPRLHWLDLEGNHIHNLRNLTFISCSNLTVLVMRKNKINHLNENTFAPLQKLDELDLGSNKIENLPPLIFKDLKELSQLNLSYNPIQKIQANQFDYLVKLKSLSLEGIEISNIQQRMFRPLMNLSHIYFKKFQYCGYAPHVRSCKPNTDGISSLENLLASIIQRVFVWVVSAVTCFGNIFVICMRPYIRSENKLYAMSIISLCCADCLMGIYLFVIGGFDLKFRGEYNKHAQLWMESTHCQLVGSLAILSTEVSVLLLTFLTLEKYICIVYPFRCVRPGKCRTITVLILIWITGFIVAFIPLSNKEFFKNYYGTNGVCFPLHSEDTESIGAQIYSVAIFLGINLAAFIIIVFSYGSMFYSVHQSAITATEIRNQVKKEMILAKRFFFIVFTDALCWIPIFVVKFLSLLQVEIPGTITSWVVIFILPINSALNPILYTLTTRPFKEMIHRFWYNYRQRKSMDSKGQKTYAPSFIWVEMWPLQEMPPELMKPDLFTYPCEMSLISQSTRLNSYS
# measurement.protocol: RXFP1 cAMP assay (hRXFP1 HEK293 cAMP assay, HTRF)
# Format: cell-based
# experimental.context: HEK293 cells stably expressing human RXFP1, 30 min at room temperature, read-out: cAMP hRXFP1 HEK293 Assay EC50
observed.property: pEC50
// scale note: pEC50 = -log10(conc_M); give the bare number

Q: Entry COc1c(F)cc(C2=NOC3CC(CO)CC23)cc1C(=O)N[C@H]1[C@@H](C(=O)Nc2ccc(F)c(C(F)(F)F)c2)[C@H]2CC[C@@H]1/C2=C\CC(C)C (stereo partly shown) needs its pEC50 filled in; supply it.
A: 8.43

Q: Please give the documented pEC50 of COc1ccc(-c2cc(C(=O)O)ccc2F)cc1C(=O)N[C@@H]1C2CCC(/C2=C/C2CC2)[C@@H]1C(=O)NCCc1cccc(C(F)(F)F)c1 (stereo partly shown)
A: 6.05

Q: Fill in reported pEC50 for this entry: COc1cc(C2CC2)c(C2=NOC3COCC23)cc1C(=O)N[C@H]1C(C(=O)Nc2ccc(F)c(C(F)(F)F)c2)[C@H]2CC[C@@H]1/C2=C\C1CC1 (single isomer, unassigned)
A: 6.77

Q: Let me know recorded pEC50 for COc1ccc(-c2cc(C(OC(=O)NC(C)(C)C)C(=O)O)ccc2F)cc1C(=O)N[C@H]1[C@@H](C(=O)Nc2ccc(F)c(C(F)(F)F)c2)[C@H]2CC[C@@H]1/C2=C\CCC(F)(F)F (stereo partly shown) , thanks.
A: 8.85

Q: Tell me pEC50 reported for COc1ccc(C2=NO[C@H]3C[C@H](CO)C[C@@H]23)cc1C(=O)N[C@H]1[C@@H](C(=O)N[C@H](C)C2(C)CC2)[C@H]2CC[C@@H]1/C2=C\C1CCCC1
A: 8.72

Q: Supply reported pEC50 belonging to this molecule: COc1ccc(C2CCCN2C(=O)C(C)(C)O)cc1C(=O)N[C@@H]1C2CCC(C2=CC2CC2)[C@@H]1C(=O)Nc1ccc(F)c(C(F)(F)F)c1 (stereo partly shown) [compound 688]
A: 6.17

Q: Query pEC50 for COc1ccc(C2=NOC3(CO)CCCC23)cc1C(=O)N[C@H]1[C@@H](C(=O)Nc2ccc(F)c(C(F)(F)F)c2)[C@H]2CC[C@@H]1/C2=C\C1CC1 (single isomer, unassigned) [compound 548]
A: 7.49

Q: Entry COc1ccc(N2CC(CO)CC2=O)cc1C(=O)N[C@H]1[C@@H](C(=O)Nc2ccc(F)c(C(F)(F)F)c2)[C@H]2CC[C@@H]1/C2=C\C1CC1 (stereo partly shown) needs its pEC50 filled in; supply it.
A: 7.65

Q: Provide one value: measured pEC50 of COc1ccc(-c2cc(C(OC(=O)Nc3ccc(Cl)cc3)C(F)(F)F)ccc2F)cc1C(=O)N[C@@H]1C2CCC(/C2=C/C2CC2)[C@@H]1C(=O)Nc1ccc(F)c(C(F)(F)F)c1 (stereo partly shown)
A: 8.52

Q: Answer with the recorded pEC50 for the molecule listed here: COc1ccc(-c2cc(C(=O)NS(=O)(=O)c3ccccc3)ccc2F)cc1C(=O)N[C@@H]1C2CCC(C2=C(C)C)[C@@H]1C(=O)Nc1ccc(F)c(C(F)(F)F)c1 (stereo partly shown)
A: 6.72
